ASSAY METHOD TEXT: qHTS of pediatric cancer cell lines to identify multiple opportunities for drug repurposing: Primary screen for NB1643 cells (AID 1347099); note: nearly all actives have a fitted effect of over 50% in size
CONDITION LABEL: NB1643 neuroblastoma viability, CellTiter-Glo luminescence, 48 h; series mostly up to 46 µM
Records with an inconclusive call do not appear. The source made the active and inactive calls. Calls come from the whole dose curve; as a rule, active = well fitted cell-killing curve with a large enough effect; inconclusive = small, poorly fitted or top-dose-only effect; inactive = no such curve, though single readings can be large or run the other way.

{"STRUCTURE SMILES": "COc1ccc2nc(NC(=O)Nc3ccccc3)sc2c1", "outcome": "inactive"}
{"STRUCTURE SMILES": "O=C(O)CCC(=O)c1ccc(-c2ccccc2)cc1", "outcome": "inactive"}
{"STRUCTURE SMILES": "Oc1ccc(/C=C/c2cc(O)cc(O)c2)cc1", "outcome": "inactive"}
{"STRUCTURE SMILES": "O=C(OCc1ccccc1)c1ccc(O)cc1", "outcome": "inactive"}
